All figures here come from the supplement of paper PMC10567573.

B1: MNAT1 (parent)
chain: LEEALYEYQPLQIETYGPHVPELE

# Variants of: B1
# Protocol Description: protein stability index of a GFP-peptide fusion (GPS, HEK-293T) (PSI 1-6); higher = more stable;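 also: lentivirally expressed fusions sorted by FACS into six bins by GFP to DsRed ratio, PSI derived from sequencing read proportions per bin multiplied by bin number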
# Condition Info: c terminus: a fixed tail appended
We use 4 as the dividing line for protein stability index: on or above the line is 1, below is -1.

Kindly determine if protein stability index recorded for "H19E" is above or exactly 4.
-1

Kindly determine if protein stability index recorded for "L23A" is above or exactly 4.
-1

Kindly determine if protein stability index recorded for "I13G" is above or exactly 4.
1

Kindly determine if protein stability index recorded for "P10M" is above or exactly 4.
-1

Kindly determine if protein stability index recorded for "Y6H" is above or exactly 4.
-1

Kindly determine if protein stability index recorded for "L11P" is above or exactly 4.
1

Kindly determine if protein stability index recorded for "Y6V" is above or exactly 4.
-1

Kindly determine if protein stability index recorded for "A4K" is above or exactly 4.
1

Kindly determine if protein stability index recorded for "A4Y" is above or exactly 4.
-1
